- Test system: MCF7
- method_description: Antiproliferative activity against human MCF7 cells assessed as reduction in cell viability measured after 72 hrs by MTT assay
- Type: functional, cell-based
- experimental_setup: MCF7, 72 h
property_measured: IC50 (µM)

P = CC/C(=C(\c1ccccc1)c1ccc(OCCN(C)CCCCCC(=O)NCCc2c[nH]c3ccc(OC)cc23)cc1)c1ccccc1
Q = CC/C(=C(\c1ccccc1)c1ccc(OCCN(C)CCCCC(=O)NCCc2c[nH]c3ccc(OC)cc23)cc1)c1ccccc1
Ask: Compare the recorded IC50 of P and Q ; state which is larger. // return label of chosen record
Reply: P

---

- System: MCF7
- method_description: Antiproliferative activity against human MCF7 cells assessed as reduction in cell growth measured after 72 hrs by alamar blue analysis
- experimental_setup: MCF7, 72 h
property_measured: pIC50
Expect pIC50 as a plain number equal to -log10 of the molar concentration.

Ask: Request the reported pIC50 associated with CC/C(=C(\c1ccc(O)cc1)c1ccc(OCCN(C)C(=O)CCC(=O)Oc2cc(/C=C\c3cc(OC)c(OC)c(OC)c3)ccc2OC)cc1)c1ccccc1
Reply: 8.24
